- Target entity: α-Glucosidase type I (EC 3.2.1.20) (Saccharomyces cerevisiae)
- Construct: purchased Sigma-Aldrich Chemical Co. (St. Louis, MO)
- Sequence (P53341 whole entry): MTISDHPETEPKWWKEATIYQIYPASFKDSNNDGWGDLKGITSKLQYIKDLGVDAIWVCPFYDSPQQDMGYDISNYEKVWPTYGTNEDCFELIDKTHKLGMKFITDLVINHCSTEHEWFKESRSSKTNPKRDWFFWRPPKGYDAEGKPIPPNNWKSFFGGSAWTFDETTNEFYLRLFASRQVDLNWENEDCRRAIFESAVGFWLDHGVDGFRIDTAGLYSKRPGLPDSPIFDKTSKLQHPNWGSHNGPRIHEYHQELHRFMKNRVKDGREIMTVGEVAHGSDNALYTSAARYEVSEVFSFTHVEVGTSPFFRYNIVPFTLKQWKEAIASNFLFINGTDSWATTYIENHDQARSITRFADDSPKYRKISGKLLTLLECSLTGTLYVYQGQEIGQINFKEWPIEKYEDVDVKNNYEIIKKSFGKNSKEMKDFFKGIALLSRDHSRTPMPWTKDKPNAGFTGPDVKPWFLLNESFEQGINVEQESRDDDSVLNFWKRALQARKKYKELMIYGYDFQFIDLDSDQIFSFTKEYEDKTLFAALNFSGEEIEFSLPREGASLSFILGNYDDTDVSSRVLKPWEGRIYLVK
- Assay details: biochemical
- Assay context: isolated compounds; mean ± SD, n = 3; read-out: IC50 α-glucosidase
Kindly supply the reported IC50 values for the records listed here.
Note: unit µM is implicit; provide only the numeric part.

Challenge: Checklist item: IC50 tested on α-Glucosidase type I (EC 3.2.1.20) (Saccharomyces cerevisiae), entry O=C1C[C@@H](c2ccc(O)c(O[C@@H]3O[C@H](CO)[C@@H](O)[C@H](O)[C@H]3O)c2)Oc2cc(O)cc(O)c21 , value?
Response given: 728

Challenge: Try C[C@@H]1O[C@@H](OC[C@H]2O[C@@H](Oc3c(-c4ccc(O)c(O)c4)oc4cc(O)cc(O)c4c3=O)[C@H](O)[C@@H](O)[C@@H]2O)[C@H](O)[C@H](O)[C@H]1O [Compound 4, quercetin 3-O-β-D-rutinoside] next.
Response given: 166

Challenge: Try O=C1c2c(O)cc(O[C@@H]3O[C@H](CO)[C@@H](O)[C@H](O)[C@H]3O)cc2O[C@H](c2ccc(O)cc2)[C@H]1O next.
Response given: 933

Challenge: Try CC(=O)OC[C@H]1O[C@@H](Oc2c(-c3ccc(O)c(O)c3)oc3cc(O)cc(O)c3c2=O)[C@H](O)[C@@H](O)[C@@H]1O next.
Response given: 310

Challenge: Try O=c1c(O[C@@H]2O[C@H](CO)[C@@H](O)[C@H](O)[C@H]2O)c(-c2ccc(O)c(O)c2)oc2cc(O)cc(O)c12 [Compound 2, quercetin-3-O-β-D-glucopyranoside] next.
Response given: 165
